Every entry's value here was drawn from patent US12139487B2.

- Tested on: BRM-dependent transcription (BRG1 mutant lung cancer cell line A549)
- Assay Method Text: BRM-dependent transcription, MMTV luciferase reporter in BRG1 mutant A549 cells
- Assay type: cell-based
- Stated Conditions: MMTV luciferase reporter cell lines, selectivity BRG1/BRM, Table 11
Would you kindly list Ratio (MDA-MMTV IC50 (μM) divided by A549-MMTV IC50 (μM)) for each of these compounds?
Give bare numbers.

Worked examples follow.
COCCOc1cnc2c(c1)CCCN2c1ccc2cnc(CNC(=O)c3cc(Br)c4c(c3)S(=O)(=O)[C@@H](F)COC4)cc2n1 [Compound 427] : 32.84
O=C(NCc1cc2nc(-c3ccc([C@@H](F)CF)c(C4CC4)n3)ccc2cn1)c1cc(F)c2c(c1)S(=O)(=O)[C@@H](F)CCO2 [Compound 406] : 27.42
CCOc1nc(C(C)(F)F)ccc1-c1ccc2cnc(CNC(=O)c3cc(F)c4c(c3)S(=O)(=O)[C@@H](F)COC4)cc2n1 [Compound 509] : 25.33
[2H]C([2H])([2H])C([2H])([2H])Oc1nc([C@H](C)F)ccc1-c1ccc2cnc(CNC(=O)c3cc(F)c4c(c3)S(=O)(=O)[C@@H](F)CCO4)cc2n1 [Compound 421] : 23.62
COCCOc1cnc2c(c1)OCCN2c1ccc2cnc(CNC(=O)c3cc(Br)c4c(c3)S(=O)(=O)[C@@H](F)CCO4)cc2n1 [Compound 424] : 31.82
C#Cc1cc(C(=O)NCc2cc3nc(-c4cccc(N5C[C@@H](C)O[C@@H](C)C5)n4)ccc3cn2)cc2c1COC[C@H](F)S2(=O)=O [Compound 393] : 36.31
C[C@@H]1CCN1c1cnc2c(-c3ccc4cnc(CNC(=O)c5cc(Cl)c6c(c5)S(=O)(=O)[C@@H](F)COC6)cc4n3)cccc2c1 [Compound 497] : 29.41
COCCOc1cnc2c(c1)CCCN2c1ccc2cnc(CNC(=O)c3cc(C(F)F)c4c(c3)S(=O)(=O)[C@@H](F)COC4)cc2n1 [Compound 439] : 27.20
[2H]C([2H])([2H])OCCOc1cnc2c(c1)OCCN2c1ccc2cnc(CNC(=O)c3cc(C(F)F)c4c(c3)S(=O)(=O)[C@@H](F)COC4)cc2n1 [Compound 484] : 28.00
O=C(NCc1cc2nc(-c3ccc(OC(F)F)c(C4CC4(F)F)n3)ccc2cn1)c1cc(Br)c2c(c1)S(=O)(=O)[C@@H](F)CCO2 (stereo partly drawn) [Compound 448] : 37.60

For every record below, what is its Ratio (MDA-MMTV IC50 (μM) divided by A549-MMTV IC50 (μM))?
1. COc1cccc(-c2ccc3cnc(CNC(=O)c4cc(F)c5c(c4)S(=O)(=O)[C@@H](F)CCO5)cc3n2)n1 [Compound 333]
2. O=C(NCc1cc2nc(-c3ccc(C(F)F)nc3OCC3CC3)ccc2cn1)c1cc(F)c2c(c1)S(=O)(=O)[C@@H](F)CCO2 [Compound 332]

[31.11, 28.13]

* * *

- Assayed Target: BRG-1 (Homo sapiens, UniProt P51532)
- Sequence (P51532 whole entry): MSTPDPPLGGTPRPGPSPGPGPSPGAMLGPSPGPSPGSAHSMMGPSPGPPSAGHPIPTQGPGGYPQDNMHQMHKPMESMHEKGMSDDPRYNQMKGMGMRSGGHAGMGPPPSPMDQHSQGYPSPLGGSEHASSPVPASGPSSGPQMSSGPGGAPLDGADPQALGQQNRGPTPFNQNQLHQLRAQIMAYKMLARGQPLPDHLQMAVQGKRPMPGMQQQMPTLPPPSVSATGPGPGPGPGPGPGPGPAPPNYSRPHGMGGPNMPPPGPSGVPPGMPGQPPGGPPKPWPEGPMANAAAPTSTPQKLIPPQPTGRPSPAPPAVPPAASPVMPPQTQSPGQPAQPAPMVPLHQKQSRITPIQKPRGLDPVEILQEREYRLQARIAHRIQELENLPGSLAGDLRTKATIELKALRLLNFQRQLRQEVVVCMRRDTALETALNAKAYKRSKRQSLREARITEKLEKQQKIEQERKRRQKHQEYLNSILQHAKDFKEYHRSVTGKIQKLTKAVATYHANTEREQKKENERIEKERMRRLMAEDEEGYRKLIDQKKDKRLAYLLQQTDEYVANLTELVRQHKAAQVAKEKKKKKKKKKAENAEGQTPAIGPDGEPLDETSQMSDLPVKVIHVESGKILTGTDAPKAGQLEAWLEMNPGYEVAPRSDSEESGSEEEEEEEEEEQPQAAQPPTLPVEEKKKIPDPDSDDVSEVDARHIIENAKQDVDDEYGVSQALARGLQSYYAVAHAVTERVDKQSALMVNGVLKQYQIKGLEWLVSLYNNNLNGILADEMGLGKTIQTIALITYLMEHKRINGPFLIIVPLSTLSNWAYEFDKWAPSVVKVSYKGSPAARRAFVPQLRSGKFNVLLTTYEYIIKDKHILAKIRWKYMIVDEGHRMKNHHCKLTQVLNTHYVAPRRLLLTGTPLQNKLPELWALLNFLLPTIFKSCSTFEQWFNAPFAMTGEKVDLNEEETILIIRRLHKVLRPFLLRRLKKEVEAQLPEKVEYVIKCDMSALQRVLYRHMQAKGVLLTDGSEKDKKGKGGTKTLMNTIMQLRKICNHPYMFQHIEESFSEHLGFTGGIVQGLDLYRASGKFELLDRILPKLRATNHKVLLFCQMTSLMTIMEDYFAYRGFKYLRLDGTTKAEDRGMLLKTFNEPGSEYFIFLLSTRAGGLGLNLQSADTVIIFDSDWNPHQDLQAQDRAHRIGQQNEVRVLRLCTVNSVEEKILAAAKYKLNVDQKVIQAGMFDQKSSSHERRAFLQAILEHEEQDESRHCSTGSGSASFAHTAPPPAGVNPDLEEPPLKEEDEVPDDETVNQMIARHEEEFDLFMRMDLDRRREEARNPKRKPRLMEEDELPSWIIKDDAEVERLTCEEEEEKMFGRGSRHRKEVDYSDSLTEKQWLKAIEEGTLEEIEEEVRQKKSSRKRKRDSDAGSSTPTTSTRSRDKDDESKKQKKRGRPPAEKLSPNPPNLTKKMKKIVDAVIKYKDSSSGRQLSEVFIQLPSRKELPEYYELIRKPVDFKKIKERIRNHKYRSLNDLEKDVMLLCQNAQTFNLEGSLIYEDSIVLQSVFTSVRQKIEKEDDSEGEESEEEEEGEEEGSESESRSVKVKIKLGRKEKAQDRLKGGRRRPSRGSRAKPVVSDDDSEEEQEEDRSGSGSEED
Simple rule here: IC50 less than 0.09 µM is condition met, otherwise condition not met.

Use these answered entries as a reference point.
C[C@@H]1CN(c2cccc(/C=C/c3ccnc(CNC(=O)c4cc(Cl)c5c(c4)S(=O)(=O)[C@@H](F)COC5)c3)n2)C[C@H](C)O1 : condition not met
O=C(NCc1cc2nc(N3CCCc4c(OC(F)F)ccnc43)ccc2cn1)c1cc(F)c2c(c1)S(=O)(=O)[C@@H](F)CCO2 : condition met

Strictly below 0.09 µM in IC50? `O=C(NCc1cc2nc(N3CCOc4cc([C@@H]5CC5(F)F)cnc43)ccc2cn1)c1cc(F)c2c(c1)S(=O)(=O)[C@@H](F)CCO2`
condition met

Given the entry `CCOc1cc(C(F)F)nc2c1OCCN2c1ccc2cnc(CNC(=O)c3cc(F)c4c(c3)S(=O)(=O)[C@@H](F)CCO4)cc2n1` , would its reported IC50 be below 0.09 µM?
condition met

Just wondering, is IC50 of `COc1nc(C(F)F)ccc1-c1ccc2cnc(CNC(=O)c3cc(F)c4c(c3)S(=O)(=O)[C@@H](F)COC4)cc2c1` below 0.09 µM?
condition not met

Input `CCN(CC)c1cnc2c(c1)OCCN2c1ccc2cnc(CNC(=O)c3cc(F)c4c(c3)S(=O)(=O)[C@@H](F)COC4)cc2n1` ; condition: IC50 strictly below 0.09 µM. Does it hold?
condition met

Decide: IC50 of `Cc1cc(C(=O)NCc2cc3nc(N4CCOc5cc(N6CC[C@H]6C)cnc54)ccc3cn2)cc2c1COC[C@H](F)S2(=O)=O` strictly below 0.09 µM?
condition met

For `O=C(NCc1cc2nc(N3CCOc4cc(N5CC[C@H]5CF)cnc43)ccc2cn1)c1cc(F)c2c(c1)S(=O)(=O)[C@@H](F)CCO2` , is the recorded IC50 below the cut-off of 0.09 µM?
condition met

Please determine if `O=C(NCc1cc2nc(N3CCOc4cc(N5CC(CF)C5)cnc43)ccc2cn1)c1cc(F)c2c(c1)S(=O)(=O)[C@@H](F)CCO2` is below 0.09 µM in terms of IC50.
condition not met

Lab note: IC50 threshold 0.09 µM. Does this molecule come in strictly under it? `O=C(NCc1cc2nc(N3CCOc4cc(N5CC[C@@H](F)C5)cnc43)ccc2cn1)c1cc(F)c2c(c1)S(=O)(=O)[C@@H](F)CCO2`
condition met

Is 0.09 µM strictly greater than the molecule's reported IC50? molecule: `COc1nc(C(F)F)ccc1-c1ccc2cnc(CNC(=O)c3cc(Cl)c4c(c3)S(=O)(=O)[C@@H](F)CCO4)cc2n1`
condition not met
